System: blackgrass (Alopecurus myosuroides)
Assay explanation: Test A postemergence
Type: in vivo
Details: Alopecurus myosuroides, post-emergence, 240 h, 125 g ai/ha, postemergence; visual injury on 0 to 100 scale (0 no effect, 100 complete control), approx. 10 d; read-out: Blackgrass plant response rating
Property label: pest or weed control at 125 g/ha (%)
Give the value, in units of %, as a plain number.

Consider the reported pest or weed control at 125 g/ha for these molecules:
{"columns": ["Molecule", "pest or weed control at 125 g/ha (%)"],
 "data": [
  ["CSc1ccccc1NC(=O)[C@H]1C(=O)N(C)C[C@@H]1c1ccc(F)c(OC(C)C)c1 [Compound 1076]", 20],
  ["CN1CC(c2cccc(/C=C/Cl)c2)C(C(=O)Nc2ccccc2F)C1=O (stereo not drawn) [Compound 1129]", 0]
]}

Attention now shifts to the item below.
What does the record list as pest or weed control at 125 g/ha for CN1C[C@H](c2cc(C(F)F)cs2)[C@@H](C(=O)Nc2ccc(F)c(F)c2F)C1=O [Compound 1083] ? 60

---

Listing: pest or weed control at 31 g/ha of selected compounds
Test system: ryegrass, Italian (Italian ryegrass, Lolium multiflorum)
Assay explanation: Test A preemergence
Type: in vivo
Details: Lolium multiflorum, pre-emergence, 240 h, 31 g ai/ha, Preemergence; 0 to 100 scale where 0 is no effect and 100 is complete control; read-out: Ryegrass, Italian plant response rating

Consider the reported pest or weed control at 31 g/ha for these compounds:
{"columns": ["Compound", "Result"],
 "data": [
  ["Cc1ccc([C@H]2CN(C)C(=O)[C@@H]2C(=O)Nc2cccc(F)c2C#N)cc1 [Compound 1189]", "20%"],
  ["CC(C)Oc1ccc([C@H]2CN(C)C(=O)[C@@H]2C(=O)Nc2ccccc2F)cc1F [Compound 1333]", "0%"],
  ["CN1C[C@H](c2ccc(C(F)F)cc2)[C@@H](C(=O)Nc2ccccc2S(C)(=O)=O)C1=O [Compound 1175]", "0%"]
]}

What does the record list as pest or weed control at 31 g/ha for COc1ccc(C(F)(F)F)cc1[C@H]1CN(C)C(=O)[C@@H]1C(=O)Nc1cccc(F)c1F [Compound 1184] ? 40%

What does the record list as pest or weed control at 31 g/ha for CN1C[C@H](c2cccc(C#N)c2)[C@@H](C(=O)Nc2cccc(F)c2F)C1=O [Compound 1286] ? 20%

What does the record list as pest or weed control at 31 g/ha for Cc1c(F)cccc1NC(=O)[C@H]1C(=O)N(C)C[C@@H]1c1cc(C(F)F)cs1 [Compound 1089] ? 0%

What does the record list as pest or weed control at 31 g/ha for CN1C[C@H](c2ccc(Br)cc2)[C@@H](C(=O)Nc2ccc(F)c(F)c2F)C1=O [Compound 1393] ? 0%

What does the record list as pest or weed control at 31 g/ha for COc1ccc(C(F)(F)F)cc1[C@H]1CN(C)C(=O)[C@@H]1C(=O)Nc1ccccc1SC [Compound 1185] ? 0%

---

System: pigweed (Amaranthus retroflexus)
Assay explanation: Test A postemergence
Assay type: in vivo
Details: Amaranthus retroflexus, post-emergence, 240 h, 125 g ai/ha, Postemergence; visual injury after approximately 10 d; 0 to 100 scale where 0 is no effect and 100 is complete control; read-out: Plant response rating, Pigweed
Property label: pest or weed control at 125 g/ha (%)
Give the value, in units of %, as a plain number.

Consider the reported pest or weed control at 125 g/ha for these molecules:
{"columns": ["Cpd smiles", "pest or weed control at 125 g/ha (%)"],
 "data": [
  ["Cc1cc([C@H]2CN(C)C(=O)[C@@H]2C(=O)Nc2ccc(F)cc2F)ccc1Cl", 30],
  ["CCOc1cccc([C@H]2CN(C)C(=O)[C@@H]2C(=O)Nc2ccc(F)cc2F)c1", 0],
  ["Cc1c(F)cccc1NC(=O)[C@H]1C(=O)N(C)C[C@@H]1c1cc(F)cc(Cl)c1", 0]
]}

What does the record list as pest or weed control at 125 g/ha for Cc1c(F)cccc1NC(=O)[C@H]1C(=O)N(C)C[C@@H]1c1cc(F)cc(C(F)(F)F)c1 ? 0

What does the record list as pest or weed control at 125 g/ha for CSc1ccccc1NC(=O)[C@H]1C(=O)N(C)C[C@@H]1c1cc(C)c(Br)c(C)c1 ? 0

From: patent US12077503B2
